Cited source: patent US12448423

Target Or System: T1, cynomolgus CD8 (captured on the Octet biosensor) (cynomolgus)
T1 construct: Construct not described; also called cyno CD8; cyno CD8a
T1 sequence (P30433 other isoform, or with tags, fused parts or gaps): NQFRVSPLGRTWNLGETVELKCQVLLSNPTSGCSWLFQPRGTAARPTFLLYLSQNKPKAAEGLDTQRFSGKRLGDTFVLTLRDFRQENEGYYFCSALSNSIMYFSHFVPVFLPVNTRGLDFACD
Assay Procedure: Octet (BLI); cynomolgus CD8 captured, dipped into multiple concentrations of the one-arm mAb
Measured Metric: koff (s⁻¹)
Kindly provide the numeric value in s⁻¹ only, without the unit symbol.

These recorded examples may help you get a feel for the data.
Query block: # return recorded koff for input XENP26238 (antibody, V domains shown, also called OKT8_H2.161_L1.103 one-arm mAb) VH: QVQLVQSGAEVKKPGASVKVSCKASGFNIKDTYIHWVRQAPGKGLEWMGRIDPDNDETLYASKFQGRVTITADTSINTAYMELSRLRSDDTAVYYCGRGYGKYVFDHWGQGTTVTVSS VL: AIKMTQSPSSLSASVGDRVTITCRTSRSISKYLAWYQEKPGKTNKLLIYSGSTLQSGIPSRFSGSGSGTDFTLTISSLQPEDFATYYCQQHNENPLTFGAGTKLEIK
Result block: 0.00894

Query block: # return recorded koff for input XENP26233 (antibody, V domains shown, also called OKT8_H2.156_L1.103 one-arm mAb) VH: QVQLVQSGAEVKKPGASVKVSCKASGFNIKDTYIHWVRQAPGKGLEWMGRIDPDNGETLYASKFQGRVTITADTSINTAYMELSRLRSDDTAVYYCGRGWGYYVFDHWGQGTTVTVSS VL: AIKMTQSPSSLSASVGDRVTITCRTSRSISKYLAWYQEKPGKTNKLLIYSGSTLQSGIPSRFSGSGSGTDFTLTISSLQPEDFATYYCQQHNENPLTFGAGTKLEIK
Result block: 0.0133

Here is another binder to look at.
Query block: # return recorded koff for input XENP26230 (antibody, V domains shown, also called OKT8_H2.153_L1.103 one-arm mAb) VH: QVQLVQSGAEVKKPGASVKVSCKASGFNIKDTYIHWVRQAPGKGLEWMGRIDPDNGETLYASKFQGRVTMTADTSINTAYMELSRLRSDDTAVYYCGRGYGYYVFDHWGQGTTVTVSS VL: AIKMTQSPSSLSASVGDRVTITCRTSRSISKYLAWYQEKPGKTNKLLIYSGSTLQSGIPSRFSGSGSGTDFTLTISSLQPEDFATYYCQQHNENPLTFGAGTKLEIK
Result block: 0.00967
